Listing of log10(IC50) toward Gonadotropin-releasing hormone receptor (Rattus norvegicus), each taken from a published source.
Log10 applied to IC50; unit prior to transform: nM.

>>> val("Cc1cc(C)cc(-c2[nH]c3ccccc3c2CCNCCCCc2ccc(N)nc2)c1")
1.61
>>> val("CCCn1c(SCc2cc([N+](=O)[O-])ccc2OC)nc2cc(NC(=O)NC(C)(C)C)cc(C(=O)O)c21")
2.71
>>> val("CCc1nc(CN2CCN(c3cccc4[nH]c(-c5ccc(C(C)(C)C)cc5)nc34)CC2)cn1C")
1.89
>>> val("CCn1cnc(CN2CCN(c3cccc4[nH]c(-c5ccc(C(C)(C)C)cc5)nc34)CC2)c1C")
1.38
>>> val("COc1ccc([N+](=O)[O-])cc1CSc1nc2cc(NC(=O)NC(C)(C)C)ccc2n1C1CC1")
2.93
>>> val("O=S(=O)(NCc1ccc(F)cc1)c1ccc2c(c1)nc(SCCc1cccnc1)n2Cc1ccccc1")
2.15
>>> val("Oc1ccc(CCCCNCCc2c(-c3ccc(F)cc3)[nH]c3ccccc23)cc1")
4.04
>>> val("Cc1cc(-c2c(O)nc3ccc(C(=O)Nc4ccncn4)cc3c2OCC[C@@H]2CCN2)cc(C)c1C")
0.60
>>> val("O=S(=O)(NCc1ccc(F)cc1)c1ccc2c(c1)nc(SCc1ccccn1)n2Cc1ccccc1")
2.98
>>> val("CC(C)(C)NC(=O)NCCc1nc2cc(S(=O)(=O)NCc3ccc(C(F)(F)F)c(F)c3)ccc2n1Cc1ccccc1")
1.71

*Q* For COc1ccc(-c2[nH]c3ccccc3c2CCNCCCCc2ccc([N+](=O)[O-])cc2)cc1OC , what is its reported log10(IC50)?
*A* 3.70

*Q* For COc1ccc([N+](=O)[O-])cc1CSc1nc2cc(NC(=O)C(C)C)ccc2n1C(C)C , what is its reported log10(IC50)?
*A* 3.18

*Q* For Cc1cc(C)cc(-c2[nH]c3ccccc3c2CCNCCCCc2ccc(NS(C)(=O)=O)nc2)c1 , what is its reported log10(IC50)?
*A* 1.65

*Q* For Cc1c(CN2CCN(c3cccc4[nH]c(-c5ccc(C(C)(C)C)cc5)nc34)CC2)ncn1C(C)C , what is its reported log10(IC50)?
*A* 1.79

*Q* For Oc1ccc(CCCCNCCc2c(-c3cc(Cl)cc(Cl)c3)[nH]c3ccccc23)cc1 , what is its reported log10(IC50)?
*A* 2.23

*Q* For COc1ccc(-c2[nH]c3ccccc3c2CCNCCCCc2ccc(N)cc2)cc1OC , what is its reported log10(IC50)?
*A* 4.00
